Ref: patent US20100048677A1

molecular target: αIIb (INTEGRIN, ALPHA 2B; PLATELET GLYCOPROTEIN IIB OF IIB/IIIA COMPLEX, ANTIGEN CD41) (human); test: αIIb complexes captured, mass spectrometry; No. Expts 2
measurement type: #Peptides (peptides)
Number in peptides, nothing else.

Memo: 5′-NUCLEOTIDASE DOMAIN CONTAINING 2 (from UniProt Q9H857 1-520) , reported #Peptides: 34

Memo: DYNAMIN BINDING PROTEIN (from UniProt Q6XZF7 1-1577) , reported #Peptides: 30

Memo: CHAPERONIN CONTAINING TCP1, SUBUNIT 2 (BETA) (from UniProt P78371 2-535) , reported #Peptides: 20
